Molecular target: CDK2 enzyme, complexed with cyclin A (Homo sapiens)
Assay: CDK2 cyclin dependent kinase assay, phosphorylation of synthetic peptide […] (33P-ATP filtration)
Format: biochemical
Details: Table 2; 0.1 mM ATP
Protocol: The assay mixture containing the inhibitor and CDK2 enzyme, complexed with cyclin A (0.4 U/ml) was mixed together in a microtiter plate in a final volume of 50 μl and incubated for 40 min at 30° C. […] The filtration plate was dried for 10 min at 65° C., scintillant added and phosphorylated peptide quantified in a scintillation counter (Trilux, PerkinElmer). […]
pIC50: −log10 of the molar value.
Assign criterion met to entries whose pIC50 meets or exceeds 5; assign criterion not met to the rest.

Item CN(C)S(=O)(=O)c1ccc(Nc2cc(N[C@H]3CC[C@H](N)CC3)nc3ncnn23)cc1 with pIC50 of 5 or above? criterion met

Item CC(C)(C)CNc1cc(Nc2ccc(S(C)(=O)=O)cc2)n2ncnc2n1 with pIC50 of 5 or above? criterion met

Item O=S(=O)(c1ccc(Nc2cc(Cl)nc3ncnn23)cc1)C(F)(F)F with pIC50 of 5 or above? criterion not met

Item CS(=O)(=O)c1ccc(Nc2cc(N)nc3ncnn23)cc1 with pIC50 of 5 or above? criterion not met

====

biological target: CDK2 enzyme, complexed with cyclin A (Homo sapiens, UniProt P24941); assay: CDK2 cyclin dependent kinase assay, phosphorylation of synthetic peptide […] (33P-ATP filtration); type: biochemical; details: Table 3; 0.1 mM ATP
Measurement Type: pIC50
Recall that pIC50 is obtained by taking minus log10 of the concentration measured in molar.

Which value of pIC50 has been reported for N#Cc1ccc(Nc2cc(-c3cccc(F)c3)n3ncnc3n2)cc1 in the records? 3.92

Which value of pIC50 has been reported for NC(=O)c1ccc(Nc2cc(-c3ccccc3)n3ncnc3n2)cc1 in the records? 4.01

====

target: CDK2 enzyme, complexed with cyclin A (Homo sapiens); assay: CDK2 cyclin dependent kinase assay, phosphorylation of synthetic peptide […] (33P-ATP filtration); type: biochemical; conditions: Table 2; 0.1 mM ATP
So I've got a bunch of molecules here, and I need their IC50 values.
Kindly provide the numeric value in µM only, without the unit symbol.

Which value of IC50 has been reported for CN(C)c1ccc(Nc2cc(Nc3ccc(S(C)(=O)=O)cc3)n3ncnc3n2)cc1 in the records? 4.83

Which value of IC50 has been reported for NS(=O)(=O)c1ccc(Nc2cc(NCc3ccccc3)nc3ncnn23)cc1 in the records? 13.6

Which value of IC50 has been reported for CCCc1cc(Nc2ccc(S(C)(=O)=O)cc2)n2ncnc2n1 in the records? 14.2

Which value of IC50 has been reported for CCNc1cc(Nc2ccc(S(C)(=O)=O)cc2)n2ncnc2n1 in the records? 13.5

Which value of IC50 has been reported for NS(=O)(=O)c1ccc(Nc2cc(N[C@H]3CC[C@H](O)CC3)nc3ncnn23)cc1 in the records? 7.4

Which value of IC50 has been reported for CC[C@H](CO)Nc1cc(Nc2ccc(S(C)(=O)=O)cc2)n2ncnc2n1 in the records? 1.82

Which value of IC50 has been reported for CS(=O)(=O)c1ccc(CNc2cc(N[C@H]3CC[C@H](N)CC3)nc3ncnn23)cc1 in the records? 2.95

Which value of IC50 has been reported for CCN(CC)c1cc(Nc2ccc(S(=O)(=O)C(F)(F)F)cc2)n2ncnc2n1 in the records? 2.69

Which value of IC50 has been reported for COc1cc(Nc2cc(Cl)nc3ncnn23)c(Cl)cc1C(=O)O in the records? 102

Which value of IC50 has been reported for CCN(CC)c1cc(Nc2ccc(S(=O)(=O)c3ccccc3)cc2)n2ncnc2n1 in the records? 0.67

Which value of IC50 has been reported for CCN(CC)c1cc(NCc2ccc(S(C)(=O)=O)cc2)n2ncnc2n1 in the records? 29.8

Which value of IC50 has been reported for CNc1cc(Nc2ccc(S(N)(=O)=O)cc2)n2ncnc2n1 in the records? 4.19

Which value of IC50 has been reported for Clc1cc(NCC2CCNCC2)n2ncnc2n1 in the records? 177

Which value of IC50 has been reported for N[C@H]1CC[C@H](Nc2cc(Nc3ccc(S(=O)(=O)c4ccccc4)cc3)n3ncnc3n2)CC1 in the records? 0.26

Which value of IC50 has been reported for CN1CCN(c2cc(Nc3ccc(S(C)(=O)=O)cc3)n3ncnc3n2)CC1 in the records? 46.2

Which value of IC50 has been reported for Cc1cc(Nc2ccc(S(C)(=O)=O)cc2)n2ncnc2n1 in the records? 124

Which value of IC50 has been reported for CS(=O)(=O)c1ccc(Nc2cc(N[C@H]3CC[C@H](N)CC3)nc3ncnn23)cc1 in the records? 0.25

====

target: PDK1 enzyme (Homo sapiens, UniProt O15530); experiment: PDK1 3'-phosphoinositide-dependent kinase assay, phosphorylation of synthetic peptide (33P-ATP filtration); format: biochemical; conditions: Table 4; 0.01 mM ATP; read-out: PDK1 IC50
Sequence (O15530 whole entry): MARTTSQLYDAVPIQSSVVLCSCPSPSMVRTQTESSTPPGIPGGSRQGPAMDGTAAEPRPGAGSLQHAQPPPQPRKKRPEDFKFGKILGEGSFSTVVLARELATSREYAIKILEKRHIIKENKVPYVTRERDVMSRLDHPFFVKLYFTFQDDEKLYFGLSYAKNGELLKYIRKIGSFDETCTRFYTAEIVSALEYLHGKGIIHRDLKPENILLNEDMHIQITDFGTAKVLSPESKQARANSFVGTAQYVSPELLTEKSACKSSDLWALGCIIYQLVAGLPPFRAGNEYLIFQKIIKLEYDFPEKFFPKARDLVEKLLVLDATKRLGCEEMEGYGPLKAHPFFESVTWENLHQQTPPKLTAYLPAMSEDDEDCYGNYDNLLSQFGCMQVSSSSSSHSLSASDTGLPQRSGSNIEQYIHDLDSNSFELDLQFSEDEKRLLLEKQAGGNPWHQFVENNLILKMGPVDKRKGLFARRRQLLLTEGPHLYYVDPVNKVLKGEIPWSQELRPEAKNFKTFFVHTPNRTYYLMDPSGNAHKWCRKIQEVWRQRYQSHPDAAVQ
# strict inequality: IC50 < 2 µM yields YES, everything else yields NO

Regarding NC(=O)c1ccc(Nc2cc(-c3cccc(OCc4ccccc4)c3)n3ncnc3n2)cc1 , kindly confirm whether its IC50 is beneath 2 µM. NO

Regarding CNS(=O)(=O)Cc1ccc(Nc2cc(-c3cccc(F)c3)n3ncnc3n2)cc1 , kindly confirm whether its IC50 is beneath 2 µM. NO

Regarding Fc1cccc(-c2cc(Nc3ccc(Sc4ccccc4)cc3)nc3ncnn23)c1 , kindly confirm whether its IC50 is beneath 2 µM. NO

Regarding CCc1cc(OCCN)cc(-c2cc(Nc3ccc(C(=O)NCCN(CC)CC)cc3)nc3ncnn23)c1 , kindly confirm whether its IC50 is beneath 2 µM. NO

Regarding Fc1cccc(-c2cc(Nc3ccc(Oc4ccccc4)cc3)nc3ncnn23)c1 , kindly confirm whether its IC50 is beneath 2 µM. NO

Regarding CCCc1cc(OCCN)cc(-c2cc(Nc3ccc(C(N)=O)cc3)nc3ncnn23)c1 , kindly confirm whether its IC50 is beneath 2 µM. YES

Regarding NCCOc1cccc(-c2cc(Nc3ccc(C(N)=O)cc3)nc3ncnn23)c1 , kindly confirm whether its IC50 is beneath 2 µM. YES

Regarding NCCCOc1cccc(-c2cc(Nc3ccc(C(N)=O)cc3)nc3ncnn23)c1 , kindly confirm whether its IC50 is beneath 2 µM. NO

====

target: CDK2 enzyme, complexed with cyclin A (Homo sapiens); test: CDK2 cyclin dependent kinase assay, phosphorylation of synthetic peptide […] (33P-ATP filtration); type: biochemical; conditions: Table 4; 0.1 mM ATP
Measurement Type: log10 of IC50 (log10 of the value in µM)
Scale: decimal log of IC50, IC50 in µM.

Which value of log10 of IC50 has been reported for NCCOc1cccc(-c2cc(Nc3ccc(C(N)=O)cc3)nc3ncnn23)c1 [Example 151] in the records? 1.68

Which value of log10 of IC50 has been reported for CCN(CC)CCNC(=O)c1ccc(Nc2cc(-c3cccc(OCCN)c3)n3ncnc3n2)cc1 [Example 165] in the records? 0.90

Which value of log10 of IC50 has been reported for NCCCOc1cccc(-c2cc(Nc3ccc(C(N)=O)cc3)nc3ncnn23)c1 [Example 147] in the records? 1.86

Which value of log10 of IC50 has been reported for CCc1cc(OCCN)cc(-c2cc(Nc3ccc(C(N)=O)cc3)nc3ncnn23)c1 [Example 166] in the records? 0.41

Which value of log10 of IC50 has been reported for CCN(CC)CCOc1cccc(-c2cc(Nc3ccc(C(N)=O)cc3)nc3ncnn23)c1 [Example 146] in the records? 0.74

Which value of log10 of IC50 has been reported for NC(=O)c1ccc(Nc2cc(-c3cccc(OCc4cccnc4)c3)n3ncnc3n2)cc1 [Example 145] in the records? 1.36

Which value of log10 of IC50 has been reported for NC(=O)COc1cccc(-c2cc(Nc3ccc(C(N)=O)cc3)nc3ncnn23)c1 [Example 157] in the records? 0.82

Which value of log10 of IC50 has been reported for NC(=O)c1ccc(Nc2cc(-c3cccc(OCC4CCCNC4)c3)n3ncnc3n2)cc1 (stereo not drawn) [Example 148] in the records? 0.73

Which value of log10 of IC50 has been reported for NC(=O)c1ccc(Nc2cc(-c3cccc(OCc4ccccc4)c3)n3ncnc3n2)cc1 [Example 149] in the records? 0.92

====

biological target: PDK1 enzyme (Homo sapiens, UniProt O15530); assay: PDK1 3'-phosphoinositide-dependent kinase assay, phosphorylation of synthetic peptide (33P-ATP filtration); format: biochemical; settings: Table 2; 0.01 mM ATP; read-out: PDK1 IC50
So I've got a bunch of compounds here, and I need their IC50 values.

Which value of IC50 has been reported for CCN(CC)c1cc(Nc2ccccc2)n2ncnc2n1 [Example 82] in the records? > 200 µM

Which value of IC50 has been reported for CCN(CC)c1cc(Nc2ccc(S(=O)(=O)N3CCC(O)CC3)cc2)n2ncnc2n1 [Example 72] in the records? > 200 µM

Which value of IC50 has been reported for NS(=O)(=O)c1ccc(Nc2cc(NCc3ccccc3)nc3ncnn23)cc1 [Example 58] in the records? > 200 µM

Which value of IC50 has been reported for NS(=O)(=O)c1ccc(Nc2cc(NCC3CCCCC3)nc3ncnn23)cc1 [Example 59] in the records? 118 µM

Which value of IC50 has been reported for NS(=O)(=O)c1ccc(Nc2cc(N3CCCC(O)C3)nc3ncnn23)cc1 (stereo not drawn) [Example 67] in the records? > 200 µM

Which value of IC50 has been reported for O=S(=O)(c1ccc(Nc2cc(Cl)nc3ncnn23)cc1)C(F)(F)F [Example 64] in the records? > 200 µM

Which value of IC50 has been reported for CCN(CC)c1cc(NCc2ccc(S(C)(=O)=O)cc2)n2ncnc2n1 [Example 103] in the records? > 200 µM

Which value of IC50 has been reported for NS(=O)(=O)c1ccc(Nc2cc(N[C@H]3CC[C@H](O)CC3)nc3ncnn23)cc1 [Example 68] in the records? > 200 µM

Which value of IC50 has been reported for CCN(CC)c1cc(Nc2ccc(S(=O)(=O)C(F)(F)F)cc2)n2ncnc2n1 [Example 70] in the records? > 200 µM

Which value of IC50 has been reported for CCN(CC)c1cc(Nc2ccc(C(N)=O)cc2)n2ncnc2n1 [Example 92] in the records? > 200 µM

Which value of IC50 has been reported for CNc1cc(Nc2ccc(S(N)(=O)=O)cc2)n2ncnc2n1 [Example 66] in the records? > 200 µM

Which value of IC50 has been reported for CCN(c1cc(Nc2ccc(S(C)(=O)=O)cc2)n2ncnc2n1)C(C)C [Example 85] in the records? 2.89 µM

Which value of IC50 has been reported for C[Si](C)(C)CCOCn1ncc2ccc(Nc3cc(Cl)nc4ncnn34)cc21 [Example 61] in the records? > 200 µM

Which value of IC50 has been reported for CS(=O)(=O)c1ccc(Nc2cc(NC3C4CC5CC(C4)CC3C5)nc3ncnn23)cc1 (stereo not drawn) [Example 102] in the records? 3.55 µM

Which value of IC50 has been reported for CS(=O)(=O)c1ccc(CNc2cc(Cl)nc3ncnn23)cc1 [Example 95] in the records? > 200 µM

Which value of IC50 has been reported for O=S(=O)(c1ccccc1)c1ccc(Nc2cc(Cl)nc3ncnn23)cc1 [Example 88] in the records? > 200 µM

Which value of IC50 has been reported for CCOc1cc(Nc2ccc(S(N)(=O)=O)cc2)n2ncnc2n1 [Example 62] in the records? > 200 µM

Which value of IC50 has been reported for CCN(CC)c1cc(Nc2ccc(S(=O)(=O)N(C)C)cc2)n2ncnc2n1 [Example 71] in the records? > 200 µM
